These entries and their values trace back to PubChem BioAssay (NCI).

System: SK-OV-3 ovarian
experimental-details: NCI tumour cell line growth inhibition, 48 h
Reported TGI is given for each of the following compounds.

Entry COc1cc(/C=C2\CCC(C)C3C2=NN(C(C)=O)C3c2cc(OC)c(OC)c(OC)c2)cc(OC)c1OC (stereo not drawn) : reported TGI = ? > 100 µM

Entry Cc1cc(C)c(S(=O)(=O)N2CCCN(S(=O)(=O)c3c(C)cc(C)cc3C)OCCCON(S(=O)(=O)c3c(C)cc(C)cc3C)CCCN(S(=O)(=O)c3c(C)cc(C)cc3C)OCCCO2)c(C)c1 : reported TGI = ? > 100 µM

Entry COc1ccc(C(=O)c2cc(OC)c(C)c(OC)c2)cc1OC(=O)CCl : reported TGI = ? > 100 µM
